- System: Meth A fibrosarcoma
- assay.details: Antitumor testing against Meth A fibrosarcoma (oral, s.c. implanted)
- Assay type: in vivo, mice
- condition.summary: Mus musculus, 3.0 mmole/kg/day × 7, p.o., read-out: Inhibition of tumor growth
Each entry below carries its recorded inhibition in vivo at 3000 µmol/kg.
Number only, in %; omit the unit.

q: Need inhibition in vivo at 3000 µmol/kg, item C[C@H]1O[C@@H](n2cc(F)c(NC(=O)c3ccc([N+](=O)[O-])cc3)nc2=O)[C@H](O)[C@@H]1O [Example 29]
a: 92

q: Need inhibition in vivo at 3000 µmol/kg, item COc1ccc(C(=O)Nc2nc(=O)n([C@@H]3O[C@H](C)[C@@H](O)[C@H]3O)cc2F)cc1OC [Example 26]
a: 58

q: Need inhibition in vivo at 3000 µmol/kg, item C[C@H]1O[C@@H](n2cc(F)c(NC(=O)c3ccco3)nc2=O)[C@H](O)[C@@H]1O [Example 36]
a: 92

---
q: Need inhibition in vivo at 3000 µmol/kg, item C[C@H]1O[C@@H](n2cc(F)c(NC(=O)Cc3c[nH]c4ccccc34)nc2=O)[C@H](O)[C@@H]1O [Example 54]
a: 85

q: Need inhibition in vivo at 3000 µmol/kg, item CCCC(=O)Nc1nc(=O)n([C@@H]2O[C@H](C)[C@@H](O)[C@H]2O)cc1F [Example 1, N^4-butyryl-5'-deoxy-5-fluorocytidine]
a: 72

q: Need inhibition in vivo at 3000 µmol/kg, item CCC(=O)Nc1nc(=O)n([C@@H]2O[C@H](C)[C@@H](O)[C@H]2O)cc1F [Example 45, 5'-deoxy-5-fluoro-N^4-propionylcytidine]
a: 71

----------
- System: Meth A fibrosarcoma
- assay.details: Antitumor testing against Meth A fibrosarcoma (oral, s.c. implanted)
- Format: in vivo, mice
- condition.summary: Mus musculus, 3.0 mmole/kg/day × 7, p.o., read-out: Inhibition of tumor growth
outcome.measure: inhibition in vivo at 3000 µmol/kg (%)
Number only, in %; omit the unit.

q: Need inhibition in vivo at 3000 µmol/kg, item C[C@H]1O[C@@H](n2cc(F)c(NC(=O)c3cccs3)nc2=O)[C@H](O)[C@@H]1O
a: 86

q: Need inhibition in vivo at 3000 µmol/kg, item Cc1ccc(C(=O)Nc2nc(=O)n([C@@H]3O[C@H](C)[C@@H](O)[C@H]3O)cc2F)cc1C
a: 85

---
q: Need inhibition in vivo at 3000 µmol/kg, item COc1ccc(C(=O)Nc2nc(=O)n([C@@H]3O[C@H](C)[C@@H](O)[C@H]3O)cc2F)c(OC)c1
a: -13

q: Need inhibition in vivo at 3000 µmol/kg, item COC(=O)c1ccc(C(=O)Nc2nc(=O)n([C@@H]3O[C@H](C)[C@@H](O)[C@H]3O)cc2F)cc1
a: 84

q: Need inhibition in vivo at 3000 µmol/kg, item COc1cc(OC)cc(C(=O)Nc2nc(=O)n([C@@H]3O[C@H](C)[C@@H](O)[C@H]3O)cc2F)c1
a: 91

q: Need inhibition in vivo at 3000 µmol/kg, item CCSC(=O)Nc1nc(=O)n([C@@H]2O[C@H](C)[C@@H](O)[C@H]2O)cc1F
a: 66

q: Need inhibition in vivo at 3000 µmol/kg, item C[C@H]1O[C@@H](n2cc(F)c(NC(=O)c3ccc(Cl)cc3)nc2=O)[C@H](O)[C@@H]1O
a: 84

Values from patent US4966891A
